biological target: PDE4B (Homo sapiens); assay: Scintillation Proximity Assay (SPA) of PDE4B enzyme activity ([H3]-cAMP cleavage); assay type: biochemical; conditions: test substance 1 μM; one-hour incubation with [H3]-cAMP at 30° C.
measured quantity: inhibition at 1 µM (%)

{"compound": "NC1CC1Nc1nc(N2CCC(c3ccc(Cl)cc3)CC2)nc2c1[S+]([O-])CC2 (single isomer, unassigned) [Example 232]", "measured quantity": "inhibition at 1 µM", "obs value": 84}
{"compound": "N#Cc1ccc(OC2CCN(c3nc4c(c(NC5(CO)CC5)n3)[S+]([O-])CC4)CC2)cc1 (stereo not shown)", "measured quantity": "inhibition at 1 µM", "obs value": 91}
{"compound": "Cn1cc(C2CCN(c3nc4c(c(NC5CCOCC5)n3)[S+]([O-])CC4)CC2)c2ccccc21 (stereo not shown)", "measured quantity": "inhibition at 1 µM", "obs value": 96}
{"compound": "[O-][S+]1CCc2nc(N3CCC(Oc4ccc(F)cc4)CC3)nc(NC3CCOCC3)c21 (stereo not shown)", "measured quantity": "inhibition at 1 µM", "obs value": 92}
{"compound": "COCC1(c2ccc(Cl)cc2)CCN(c2nc3c(c(N[C@@H](CO)C(C)C)n2)[S+]([O-])CC3)CC1 (stereo partly shown)", "measured quantity": "inhibition at 1 µM", "obs value": 89}
{"compound": "CN1C[C@@H](Nc2nc(N3CCC(CO)(c4ccc(Cl)cc4)CC3)nc3c2[S+]([O-])CC3)CCC1=O (stereo partly shown)", "measured quantity": "inhibition at 1 µM", "obs value": 93}
{"compound": "[O-][S+]1CCc2nc(N3CCC(OCc4ccccc4)(c4ccc(Cl)cc4)CC3)nc(NC3CCOCC3)c21 (stereo not shown)", "measured quantity": "inhibition at 1 µM", "obs value": 91}
{"compound": "Cn1c(C2CCN(c3nc4c(c(NC5CCOCC5)n3)[S+]([O-])CC4)CC2)nc2ccccc21 (stereo not shown)", "measured quantity": "inhibition at 1 µM", "obs value": 93}
{"compound": "COC1(c2ccc(Cl)cc2)CCN(c2nc3c(c(N[C@@H](CO)C(C)C)n2)[S+]([O-])CC3)CC1 (stereo partly shown)", "measured quantity": "inhibition at 1 µM", "obs value": 89}
{"compound": "CN1CCC(N(C)C(=O)c2ccc(OC3CCN(c4nc5c(c(NC6CCOCC6)n4)[S+]([O-])CC5)CC3)cc2)CC1 (stereo not shown)", "measured quantity": "inhibition at 1 µM", "obs value": 93}

====

Below, each entry is listed with its recorded inhibition at 1 µM.
target: PDE4B (Homo sapiens, UniProt Q07343); test: Scintillation Proximity Assay (SPA) of PDE4B enzyme activity ([H3]-cAMP cleavage); type: biochemical; details: test substance 1 μM; one-hour incubation of [H3]-cAMP with PDE4B enzyme at 30° C.
Sequence (Q07343 whole entry, species assumed): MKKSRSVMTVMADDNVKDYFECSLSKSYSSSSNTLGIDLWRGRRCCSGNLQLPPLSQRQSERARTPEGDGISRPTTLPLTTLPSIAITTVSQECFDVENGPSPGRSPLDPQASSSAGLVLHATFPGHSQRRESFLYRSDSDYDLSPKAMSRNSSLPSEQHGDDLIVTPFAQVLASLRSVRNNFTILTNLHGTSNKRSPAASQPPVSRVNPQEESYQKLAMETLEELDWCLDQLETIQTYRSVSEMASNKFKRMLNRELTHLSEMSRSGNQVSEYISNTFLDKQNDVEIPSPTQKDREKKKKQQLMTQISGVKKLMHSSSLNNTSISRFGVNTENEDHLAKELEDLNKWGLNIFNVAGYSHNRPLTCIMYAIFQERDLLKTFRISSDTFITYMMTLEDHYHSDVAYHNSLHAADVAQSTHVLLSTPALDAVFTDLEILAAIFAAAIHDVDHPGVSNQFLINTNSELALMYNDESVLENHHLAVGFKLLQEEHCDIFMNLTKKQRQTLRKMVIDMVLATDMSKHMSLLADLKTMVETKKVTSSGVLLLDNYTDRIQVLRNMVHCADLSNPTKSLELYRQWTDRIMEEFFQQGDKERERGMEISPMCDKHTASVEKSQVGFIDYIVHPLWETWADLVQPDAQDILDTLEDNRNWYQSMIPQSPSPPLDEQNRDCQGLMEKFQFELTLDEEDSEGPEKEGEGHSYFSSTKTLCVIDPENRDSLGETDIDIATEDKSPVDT
Counter-ions that a name gives are not always drawn.

{"molecule": "CC(C)[C@H](CO)Nc1nc(N2CCC(c3nc(-c4ccncc4)no3)CC2)nc2c1[S+]([O-])CC2 (stereo partly shown) [Example 163, Trifluoroacetate]", "units of measure": "%", "inhibition at 1 µM": 92}
{"molecule": "[O-][S+]1CCc2nc(N3CCC(c4cc(-c5ccco5)n[nH]4)CC3)nc(NC3(CO)CC3)c21 (stereo not shown)", "units of measure": "%", "inhibition at 1 µM": 96}
{"molecule": "[O-][S+]1CCc2nc(N3CCC(c4noc5cc(F)ccc45)CC3)nc(NC3(CO)CC3)c21 (stereo not shown)", "units of measure": "%", "inhibition at 1 µM": 95}
{"molecule": "CN1C(=O)Nc2ccccc2C12CCN(c1nc3c(c(NC4CCOCC4)n1)[S+]([O-])CC3)CC2 (stereo not shown)", "units of measure": "%", "inhibition at 1 µM": 88}
{"molecule": "CN1C[C@@H](Nc2nc(N3CCC(O)(c4cc(F)cc(F)c4)CC3)nc3c2[S+]([O-])CC3)CCC1=O (stereo partly shown)", "units of measure": "%", "inhibition at 1 µM": 97}
{"molecule": "N#Cc1ccc(C2CCN(c3nc4c(c(Nc5cccc(F)c5)n3)[S+]([O-])CC4)CC2)cc1 (stereo not shown)", "units of measure": "%", "inhibition at 1 µM": 96}
{"molecule": "CN1C[C@@H](Nc2nc(N3CCC4(CC3)c3ccccc3NC(=O)N4C)nc3c2[S+]([O-])CC3)CCC1=O (stereo partly shown)", "units of measure": "%", "inhibition at 1 µM": 95}

====

target: UniProtKB Q07343; experiment: Scintillation Proximity Assay (SPA) of PDE4B enzyme activity ([H3]-cAMP cleavage); format: biochemical; settings: test substance 1 μM; one-hour incubation of [H3]-cAMP with PDE4B enzyme at 30° C.
Would you please tag the item rule met when its inhibition at 1 µM is 90% or above, and rule not met when it is below?

{"molecule": "CC(C)[C@H](CO)Nc1nc(N2CCC(c3noc4ccc(F)cc34)CC2)nc2c1[S+]([O-])CC2 (stereo partly shown)", "class name": "rule met"}
{"molecule": "[O-][S+]1CCc2nc(N3CCC(c4cccc(O)c4)CC3)nc(Nc3cccc(F)c3)c21 (stereo not shown)", "class name": "rule met"}
{"molecule": "CC(C)[C@H](CO)Nc1nc(N2CCC(c3noc4ccccc34)CC2)nc2c1[S+]([O-])CC2 (stereo partly shown)", "class name": "rule met"}
{"molecule": "CC(C)[C@H](CO)Nc1nc(N2CCC(c3ccc4ccccc4c3)CC2)nc2c1[S+]([O-])CC2 (stereo partly shown)", "class name": "rule met"}
{"molecule": "CN1C[C@@H](Nc2nc(N3CCC(c4ccc(Cl)cc4)CC3)nc3c2S(=O)(=O)CC3)CCC1=O", "class name": "rule not met"}
{"molecule": "CN1C[C@@H](Nc2nc(N3CCC(c4nc5ccccc5o4)CC3)nc3c2[S+]([O-])CC3)CCC1=O (stereo partly shown)", "class name": "rule met"}
{"molecule": "O=S1(=O)CCc2nc(N3CCC(c4ccc(Cl)cc4)CC3)nc(NC3(CO)CC3)c21", "class name": "rule not met"}

====

target: PDE4B (Homo sapiens); experiment: Scintillation Proximity Assay (SPA) of PDE4B enzyme activity ([H3]-cAMP cleavage); type: biochemical; settings: test substance 1 μM; one-hour incubation of [H3]-cAMP with PDE4B enzyme at 30° C.
measured quantity: inhibition at 1 µM (%)

{"compound": "CN1C[C@@H](Nc2nc(N3CCC4(CC3)OC(=O)Nc3ccccc34)nc3c2[S+]([O-])CC3)CCC1=O (stereo partly shown) [Example 50]", "test system": "PDE4B (Homo sapiens)", "obs value": 95}
{"compound": "[O-][S+]1CCc2nc(N3CCC(c4cc(-c5ccco5)n[nH]4)CC3)nc(Nc3cccc(F)c3)c21 (stereo not shown) [Example 145]", "test system": "PDE4B (Homo sapiens)", "obs value": 96}
{"compound": "[O-][S+]1CCc2nc(N3CCC(c4noc5ccc(F)cc45)CC3)nc(NC3(CO)CC3)c21 (stereo not shown) [Example 106]", "test system": "PDE4B (Homo sapiens)", "obs value": 95}
{"compound": "CC(C)[C@H](CO)Nc1nc(N2CCC(c3nnc4ccccn34)CC2)nc2c1[S+]([O-])CC2 (stereo partly shown) [Example 155]", "test system": "PDE4B (Homo sapiens)", "obs value": 83}

====

biological target: PDE4B (Homo sapiens, UniProt Q07343); test: Scintillation Proximity Assay (SPA) of PDE4B enzyme activity ([H3]-cAMP cleavage); assay type: biochemical; details: test substance 1 μM; one-hour incubation with [H3]-cAMP at 30° C.
Below, each entry is listed with its recorded inhibition at 1 µM.

{"compound": "CN1CCc2ccc(OC3CCN(c4nc5c(c(NC6CCOCC6)n4)[S+]([O-])CC5)CC3)cc2CC1 (centres unmarked)", "inhibition at 1 µM, %": 96}
{"compound": "CN(C(=O)c1ccc(OC2CCN(c3nc4c(c(NC5CCOCC5)n3)[S+]([O-])CC4)CC2)cc1)C1CCOCC1 (centres unmarked)", "inhibition at 1 µM, %": 95}
{"compound": "CC(C)c1ccccc1OC1CCN(c2nc3c(c(N[C@H]4CCC(=O)N(C)C4)n2)[S+]([O-])CC3)CC1 (some centres unmarked)", "inhibition at 1 µM, %": 95}
{"compound": "Cc1nn(C)cc1C(C)NC(=O)c1cccc(C2CCN(c3nc4c(c(NC5CCOCC5)n3)[S+]([O-])CC4)CC2)c1 (centres unmarked)", "inhibition at 1 µM, %": 90}
{"compound": "CCN(CC)CCOc1ccc(OC2CCN(c3nc4c(c(NC5CCOCC5)n3)[S+]([O-])CC4)CC2)cc1 (centres unmarked)", "inhibition at 1 µM, %": 92}
{"compound": "Cc1nc(C2CCN(c3nc4c(c(NC5(CO)CC5)n3)[S+]([O-])CC4)CC2)oc1-c1ccc(Cl)cc1 (centres unmarked)", "inhibition at 1 µM, %": 89}
{"compound": "[O-][S+]1CCc2nc(N3CCC(c4ccccc4)CC3)nc(NC3(CO)CC3)c21 (centres unmarked)", "inhibition at 1 µM, %": 92}
{"compound": "COC(=O)c1ccc(OC2CCN(c3nc4c(c(NC5CCOCC5)n3)[S+]([O-])CC4)CC2)cc1 (centres unmarked)", "inhibition at 1 µM, %": 93}
{"compound": "CN1C[C@@H](Nc2nc(N3CCC(C#N)(c4ccc(F)cc4)CC3)nc3c2[S+]([O-])CC3)CCC1=O (some centres unmarked)", "inhibition at 1 µM, %": 88}
{"compound": "CN1C[C@@H](Nc2nc(N3CCC(c4cc(-c5cccs5)[nH]n4)CC3)nc3c2[S+]([O-])CC3)CCC1=O (some centres unmarked)", "inhibition at 1 µM, %": 89}
{"compound": "Cc1nn(C)c(C)c1CNC(=O)c1cccc(C2CCN(c3nc4c(c(NC5CCOCC5)n3)[S+]([O-])CC4)CC2)c1 (centres unmarked)", "inhibition at 1 µM, %": 92}
{"compound": "CC(C)(NC(=O)c1ccc(C2CCN(c3nc4c(c(NC5CCOCC5)n3)[S+]([O-])CC4)CC2)cc1)c1ccncc1 (centres unmarked)", "inhibition at 1 µM, %": 80}
{"compound": "CN1C[C@@H](Nc2nc(N3CCC(C)(c4nc5cc(F)ccc5o4)CC3)nc3c2[S+]([O-])CC3)CCC1=O (some centres unmarked)", "inhibition at 1 µM, %": 96}
{"compound": "CN(C(=O)c1cccc(C2CCN(c3nc4c(c(NC5CCOCC5)n3)[S+]([O-])CC4)CC2)c1)C1CCOCC1 (centres unmarked)", "inhibition at 1 µM, %": 91}
